Field: Enzyme Activity Endpoint Assay (purified): Fab′2. Provide a value for each of the binders that follow.
Molecular target: pooled human IgG (human); note: test concentration or dose not given here
Assay: cell-based or functional assay
Your answer is read as ng/µL, so omit the unit and give the number.

Q: Could you tell me which Enzyme Activity Endpoint Assay (purified): Fab′2 is on file for PRT-204 (enzyme) MEVVEVWPYGQNPNGKTEILSQTEDSESLQRLRDIEDFQAEKKMQNVVYTKWLDGVTVKDHDFRKIVDGNIAYYATPLLNGRGFYDINKDFNRDSDKCAAAVAANMFHYWLDRNRDNVDRFLSQNPEKHGIIELPDGQLKLSDFLNTYESDNGYRDKSKLFDFISNNFNGPVWTDKLLDNYINGYAYNYKYGRTIEDPTKNTSKINFFKEVFNEKILTNIHSIRNQNEFSDLLSEALYTGKAIGLSYGPAGLRHSLGHIISVWGADLDADGNVVAIYVTDSDDKKLTIGDERVGLKRYKISTDDEGRARLTAYEETDNTGGQIRGLETLDTGKYAWADYFDKTEQTGTDQAEQLEHHHHHH ?
A: 0

Q: And the next one, PRT-209 (enzyme) MEVVEVWPYGQNPNGKTEILSQTEDSESLQRLRDIEDFQAEKKKQGVVYTKWLDGVDVDDHDFRKIVDGNIAYYATPLLNGKGFYDINKDFNRDSDKCAAAVAANMFHYWLDQNRDNVDRFLRQNPEKHGIIELPDGQLKLSDFLNTYESDNGYRDKSKLFDFISNNFNGPVWTDKLLDNYINGYAYNYKYGRTIEDPTKNTSKINFFKDVFNEKILTNIHSIRNYNTFSNLLSEALYTGKAIGLSYGPAGLRHSLGHIISVWGADLDEDGNVVAIYVTDSDDKKLTIGDERVGLKRYKISTDDEGRARLTAYEENDNTGGEIRGLYTLDTGKQAWADYFDKTEQTGTDQAEQLEHHHHHH ?
A: 0

Q: Now this one: PRT-206 (enzyme) MEVVEVWPYGQNPNGKTEILSQTEDSESLQRLRDIEDFQAEKKKENVVYTKWLDGVTVKDHDFRKIVDGNIAYYATPLLNGRGFYDINKDFNRDSDKCAAAVAANMFHYWLDINRDNVDRFLRQNPEKHGIIELPDGQLKLSDFLNTYESDDGYRDKSKLFDFISNNFNGPVWTDKLLDNYINGYGYNYKYGRTIEDPTKNTSKINFFKEVFNEKILTDNHSIRDQNEFSDLLSEALYTGKAIGLSYGPAGLRHSLGHIISVWGADLDADGNVVAIYVTDSDDKKLTIGDERVGLKRYKISYDDEGRARLTAYEEKDNTGGQIRGLYTLDTGKQAWADYFDKTEQTGTDQAEQLEHHHHHH
A: 570
